SUBJECT OF TEST: 5HT1A receptor (Rattus norvegicus)
Sequence (P19327 1-422): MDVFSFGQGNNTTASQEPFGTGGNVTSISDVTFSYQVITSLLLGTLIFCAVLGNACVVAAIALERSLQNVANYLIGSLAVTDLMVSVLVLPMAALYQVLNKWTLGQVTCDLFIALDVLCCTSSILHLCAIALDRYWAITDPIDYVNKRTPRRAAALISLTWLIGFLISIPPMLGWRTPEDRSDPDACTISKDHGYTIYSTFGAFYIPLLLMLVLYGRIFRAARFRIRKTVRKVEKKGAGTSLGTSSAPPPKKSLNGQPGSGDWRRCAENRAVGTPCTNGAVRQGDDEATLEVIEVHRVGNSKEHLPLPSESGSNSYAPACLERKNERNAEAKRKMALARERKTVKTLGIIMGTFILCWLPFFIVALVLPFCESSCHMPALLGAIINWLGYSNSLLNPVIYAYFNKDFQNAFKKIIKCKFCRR
pIC50: −log10 of the molar value.
Classification field: enter satisfied for pIC50 values not below 7, not satisfied for values below it.

Item COc1ccccc1N1CCN(CCn2c(=O)c3csc4c3n(c2=O)CCC4=O)CC1 [Example 1] with pIC50 of 7 or above?
satisfied

Next:
hey, is pIC50 for this one >= 7? O=C1CCn2c(=O)n(CCCCCN3CCC(=C(c4ccc(F)cc4)c4ccc(F)cc4)CC3)c(=O)c3csc1c32 [Example 45]
not satisfied

Can COc1ccccc1N1CCN(CCn2c(=O)c3csc4c3n(c2=O)CCNC4=O)CC1 [Example 25] be said to have pIC50 at or above 7?
satisfied

Quick check: does COc1ccccc1N1CCN(CCCCn2c(=O)c3csc4c3n(c2=O)CCC4=O)CC1 [Example 11] have pIC50 greater than or equal to 7?
satisfied

Would you say O=C1CCn2c(=O)n(CCCCN3CCC(C(=O)c4ccc(F)cc4)CC3)c(=O)c3csc1c32 [Example 42] shows pIC50 at minimum 7?
not satisfied

###

SUBJECT OF TEST: 5HT2 receptor (Rattus norvegicus, UniProt P14842)
Construct: Membrane fragments were prepared from the frontal cortex dissected from brains obtained from female rats; from tissue; host or cells: frontal cortex, female rats
Sequence (P14842 whole entry, the tested form may be a part): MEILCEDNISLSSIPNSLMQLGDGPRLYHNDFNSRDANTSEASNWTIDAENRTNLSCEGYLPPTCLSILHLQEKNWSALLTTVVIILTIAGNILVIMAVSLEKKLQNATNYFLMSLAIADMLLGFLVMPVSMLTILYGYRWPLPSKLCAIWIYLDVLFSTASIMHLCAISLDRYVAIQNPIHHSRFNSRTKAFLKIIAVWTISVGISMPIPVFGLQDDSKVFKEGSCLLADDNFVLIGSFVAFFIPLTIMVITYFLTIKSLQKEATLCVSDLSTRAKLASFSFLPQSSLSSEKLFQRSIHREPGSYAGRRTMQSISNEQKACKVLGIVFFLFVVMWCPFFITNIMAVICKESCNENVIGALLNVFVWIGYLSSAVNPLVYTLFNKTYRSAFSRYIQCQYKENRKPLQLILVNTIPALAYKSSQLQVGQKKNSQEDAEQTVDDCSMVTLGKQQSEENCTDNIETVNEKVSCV
PROCEDURE SUMMARY: Brain Serotonin 5HT2 Radioreceptor Assay (3H-ketanserin)
Type: binding
EXPERIMENTAL SETUP: 0.25 h, @ 10^-6, rat frontal cortex membranes, read-out: RECEPTOR BINDING 5HT-2, % @ 10^-6
Cut-off 30% on inhibition at 1 µM, inclusive. At or above means true (1); below means false (0).

Form field: inhibition at 1 µM at least 30%? Entry: `CON=C1CCCn2c(=O)n(CCN3CCN(c4ccccc4OC)CC3)c(=O)c3csc1c32`
false (0)

Determine whether this compound has inhibition at 1 µM no lower than 30%: `COc1ccccc1N1CCN(CCCCn2c(=O)c3csc4c3n(c2=O)CCC4=O)CC1`
true (1)

Continuing:
Assess whether reported inhibition at 1 µM for `O=C1CCn2c(=O)n(CCCCN3CCN(c4cccc(C(F)(F)F)c4)CC3)c(=O)c3csc1c32` sits at 30% or higher.
true (1)

Does `CON=C1CCn2c(=O)n(CCCN3CCN(c4ccccc4OC)CC3)c(=O)c3csc1c32` have a reported inhibition at 1 µM of at least 30%?
true (1)

# bool: inhibition at 1 µM of `O=C1CCn2c(=O)n(CCN3CC=C(c4ccccc4)CC3)c(=O)c3csc1c32` >= 30%
false (0)
